- Study system: Recombinant human mPGES-1 (Homo sapiens, UniProt O14684)
- Sequence (O14684 whole entry): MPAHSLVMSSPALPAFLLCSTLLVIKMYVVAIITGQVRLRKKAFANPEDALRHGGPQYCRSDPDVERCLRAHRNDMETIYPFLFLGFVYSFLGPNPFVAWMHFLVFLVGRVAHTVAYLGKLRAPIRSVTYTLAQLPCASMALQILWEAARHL
- Method: In-vitro mPGES-1 enzyme inhibition assay (PGE2 formation from PGH2, HTRF detection)
- Format: biochemical
- Experimental parameters: 10 μM test compound; recombinant human mPGES-1 microsomal fraction; read-out: Percentage inhibition at 10 μM
# inhibition at 10 µM listing for each entry below
Quantity name: inhibition at 10 µM (%)

compound="CC1(C)Cc2c(c(C(=O)Nc3c(F)cccc3F)cc3nc(Nc4c(Cl)cccc4Cl)[nH]c23)O1 [Example-76]" recorded_number=99.6
compound="Cc1cc2c(o1)c(C(=O)NC1CCCCC1)cc1nc(Nc3ccccc3Cl)[nH]c12 [Example-16]" recorded_number=94.9
compound="CC1(C)Cc2c(c(C(=O)Nc3cc(C4CC4)ccc3F)cc3nc(Nc4c(Cl)cccc4Cl)[nH]c23)O1 [Example-159]" recorded_number=100
compound="Cc1nc2c(o1)c(C(=O)NC1CCC(F)(F)CC1)cc1nc(Nc3c(Cl)cccc3Cl)[nH]c12 [Example-189]" recorded_number=91.1
compound="CCCCCCNC(=O)c1cc2nc(Nc3c(Cl)cccc3Cl)[nH]c2c2nc(C)oc12 [Example-181]" recorded_number=93.9
compound="CC(C)(C)CC(C)(C)NC(=O)c1cc2nc(Nc3c(Cl)cncc3Cl)[nH]c2c2c1OC(C)(C)C2 [Example-25]" recorded_number=98.2
compound="Cc1nc2c(o1)c(C(=O)NCc1ccccc1C(F)(F)F)cc1nc(Nc3c(Cl)cccc3Cl)[nH]c12 [Example-188]" recorded_number=99.4
